- procedureSummary: Determination of solubility in water (PBS 20 mM, pH 6.8)
- Format: physicochemical
- measurementConditions: PBS buffer, aqueous buffer, thermodynamic from solid; pH 6.8, 20 mM PBS; read-out: Solubility (pH 6.8, g/mL)
quantityName: solubility (µg/mL)

(a) C=CC(=O)Nc1cccc(-n2c(=O)c(-c3ccccc3)nc3cnc(Nc4ccc(N(C)CCN(C)C)cc4OC)nc32)c1 [Compound 20]
(b) C=CC(=O)N1CCC[C@@H](n2c(=O)cnc3cnc(Nc4ccc(N5CCN(C)CC5)cc4OC)nc32)C1 [Compound 22]
-- ask Between a and b , which one has the lower reported solubility value? Respond with the label that goes with your answer.
-- reply a
(a: 7.4 µg/mL, b: 3230 µg/mL)

----------
- procedureSummary: Determination of solubility in water (PBS 20 mM, pH 6.8)
- Assay type: physicochemical
- measurementConditions: PBS buffer, aqueous buffer, thermodynamic from solid; pH 6.8, 20 mM PBS; read-out: Solubility (pH 6.8, g/mL)
- Experimental: The suspension was filtered through a 0.22 μm PVDF filter, and then diluted to an appropriate concentration with methanol (v=50%) and PBS (v=50%), and the absorbance was measured by a UV spectrophotometer. […] The above stock solution was taken and prepared into a solution at concentrations of 0.05, 0.04, 0.03, 0.02 and 0.01 mg/mL, respectively, PBS solution (v=50%) was added and the absorbance value was measured. […] The solubility of a compound in water was calculated from the standard curve.
quantityName: solubility

Solved cases below.
- structureAsSmiles: "C=CC(=O)N1CCC[C@H](n2c(=O)cnc3cnc(Nc4ccc(N5CCN(C)CC5)cc4OC)nc32)C1"
  solubility: "> 11400 µg/mL"
- structureAsSmiles: "C=CC(=O)Nc1cccc(-n2c(=O)c(C(C)C)nc3cnc(Nc4cc(C)c(N5CCN(C)CC5)cc4OC)nc32)c1"
  solubility: "< 10 µg/mL"
- structureAsSmiles: "C=CC(=O)Nc1cccc(-n2c(=O)c(C(C)C)nc3cnc(Nc4ccc(N5CCN(C)CC5)cc4OC)nc32)c1"
  solubility: "< 10 µg/mL"

-- ask Quick check: solubility of COc1cc(N2CCN(C)CC2)ccc1Nc1ncc2nc(-c3ccccc3)c(=O)n(-c3cccc(N)c3)c2n1 ?
-- reply < 10 µg/mL

----------
# key: entry, value: melting point

-- ask Quick check: melting point of C=CC(=O)N1CCC[C@@H](n2c(=O)c(-c3ccccc3)nc3cnc(Nc4ccc(N5CCN(C)CC5)cc4OC)nc32)C1 [Compound 45] ?
-- reply 134.9 to 135.1 °C

-- ask Would you mind doing C=CC(=O)N1CC[C@H](n2c(=O)c(-c3ccccc3)nc3cnc(Nc4ccc(N5CCN(C)CC5)c(OC)c4)nc32)C1 [Compound 35] as well?
-- reply 208.3 to 208.8 °C

-- ask Would you mind doing C=CC(=O)Nc1cccc(-n2c(=O)c(C(F)(F)F)nc3cnc(Nc4ccc(N5CCN(C)CC5)c(OC)c4)nc32)c1 [Compound 33] as well?
-- reply > 300 °C

-- ask Would you mind doing C=CC(=O)Nc1cccc(-n2c(=O)c(-c3ccccc3)nc3cnc(Nc4ccc(N5CCN(C)CC5)c(C)c4)nc32)c1 [Compound 47] as well?
-- reply 265 to 265.2 °C

-- ask Would you mind doing C=CC(=O)Nc1cccc(-n2c(=O)c(C(C)C)nc3cnc(Nc4cc(C)c(N5CCN(C)CC5)cc4OC)nc32)c1 [Compound 39] as well?
-- reply 227.5 to 228.5 °C

-- ask Would you mind doing COc1cc(N2CCN(C)CC2)ccc1Nc1ncc2nc(-c3ccccc3)c(=O)n(-c3cccc(N)c3)c2n1 [Compound 51] as well?
-- reply 235.5 to 235.7 °C

-- ask Would you mind doing COc1cc(N2CCN(C)CC2)ccc1Nc1ncc2nc(-c3ccccc3)c(=O)n([C@H]3CCN(C(=O)/C=C/CN(C)C)C3)c2n1 [Compound 31] as well?
-- reply 253.1 to 254 °C

-- ask Would you mind doing C=CC(=O)N1CC[C@H](n2c(=O)c(-c3ccccc3)nc3cnc(Nc4ccc(N(C)CCN(C)C)c(C)c4)nc32)C1 [Compound 40] as well?
-- reply 256.1 to 256.4 °C

-- ask Would you mind doing C=CC(=O)Nc1cccc(-n2c(=O)c(-c3ccccc3)nc3cnc(Nc4ccc(N5CCN(C)CC5)c(OC)c4)nc32)c1 [Compound 42] as well?
-- reply 264.7 to 265.5 °C

-- ask Would you mind doing C=CC(=O)Nc1cccc(-n2c(=O)c(-c3ccc(OC)cc3)nc3cnc(Nc4ccc(N5CCN(C)CC5)cc4OC)nc32)c1 [Compound 54] as well?
-- reply 296.5 to 297.3 °C

-- ask Would you mind doing C=CC(=O)Nc1cccc(-n2c(=O)c(-c3cccc(OC)c3)nc3cnc(Nc4ccc(N5CCN(C)CC5)cc4OC)nc32)c1 [Compound 57] as well?
-- reply > 300 °C

-- ask Would you mind doing C=CC(=O)N1CC[C@H](n2c(=O)c(-c3ccccc3)nc3cnc(Nc4ccc(N(C)CCN(C)C)c(OC)c4)nc32)C1 [Compound 41] as well?
-- reply 260 to 260.2 °C

-- ask Would you mind doing C=CC(=O)Nc1cccc(-n2c(=O)c(-c3ccc(F)cc3)nc3cnc(Nc4ccc(N5CCN(C)CC5)cc4OC)nc32)c1 [Compound 52] as well?
-- reply 262.3 to 262.7 °C

-- ask Would you mind doing C=CC(=O)N1CC[C@H](n2c(=O)cnc3cnc(Nc4ccc(N5CCN(C)CC5)c(C)c4)nc32)C1 [Compound 34] as well?
-- reply 215.5 to 215.7 °C

-- ask Would you mind doing C=CC(=O)N1CC[C@H](n2c(=O)c(C3CCCCC3)nc3cnc(Nc4ccc(N5CCN(C)CC5)cc4OC)nc32)C1 [Compound 50] as well?
-- reply 117.9 to 118.2 °C

-- ask Would you mind doing C=CC(=O)Nc1cccc(-n2c(=O)c(-c3ccccc3)nc3cnc(Nc4cc(C)c(N5CCN(C)CC5)cc4OC)nc32)c1 [Compound 38] as well?
-- reply 292.9 to 293.4 °C

-- ask Would you mind doing C=CC(=O)N1CCC[C@H](Cn2c(=O)c(-c3ccccc3)nc3cnc(Nc4ccc(N5CCN(C)CC5)cc4OC)nc32)C1 [Compound 44] as well?
-- reply 208.3 to 209.3 °C

-- ask Would you mind doing C=CC(=O)Nc1cccc(-n2c(=O)c(-c3ccccc3)nc3cnc(Nc4ccc(N5CCC(N6CCN(C)CC6)CC5)cc4OC)nc32)c1 [Compound 48] as well?
-- reply > 300 °C

-- ask Would you mind doing C=CC(=O)Nc1cccc(-n2c(=O)c(-c3cc(F)cc(F)c3)nc3cnc(Nc4ccc(N5CCN(C)CC5)cc4OC)nc32)c1 [Compound 55] as well?
-- reply 291.2 to 291.4 °C

----------
- Test system: H1975 cells (EGFR L858R/T790M)
- procedureSummary: Inhibitory activity on cell proliferation, H1975
- Format: cell-based
- measurementConditions: Homo sapiens, NCI-H1975; H1975, 72 hours; read-out: Inhibitory activity on proliferation of cells (IC50, μM) H1975
quantityName: IC50 (µM)

Solved cases below.
- compound: "C=CC(=O)Nc1cccc(-n2c(=O)cnc3cnc(Nc4ccc(N(C)CCN(C)C)cc4OC)nc32)c1 [Compound 18]"
  quantityName: "IC50"
  units: "µM"
  assayResult: 0.06
- compound: "COc1cc(N2CCN(C)CC2)ccc1Nc1ncc2nc(C(C)C)c(=O)n([C@H]3CCN(C(=O)/C=C/CN(C)C)C3)c2n1 [Compound 28]"
  quantityName: "IC50"
  units: "µM"
  assayResult: 8.38
- compound: "C=CC(=O)Nc1cccc(-n2c(=O)c(C3CCCCC3)nc3cnc(Nc4ccc(N5CCN(C)CC5)cc4OC)nc32)c1 [Compound 43]"
  quantityName: "IC50"
  units: "µM"
  assayResult: 0.112
- compound: "C=CC(=O)N1CCC[C@H](n2c(=O)cnc3cnc(Nc4ccc(N5CCN(C)CC5)cc4OC)nc32)C1 [Compound 3]"
  quantityName: "IC50"
  units: "µM"
  assayResult: 33.7
- compound: "C=CC(=O)N1CC[C@H](n2c(=O)c(C(C)C)nc3cnc(Nc4ccc(N5CCN(C)CC5)c(C)c4)nc32)C1 [Compound 24]"
  quantityName: "IC50"
  units: "µM"
  assayResult: 2.49

(A) C=CC(=O)N1CCC[C@@H](n2c(=O)c(C3CCCCC3)nc3cnc(Nc4ccc(N5CCN(C)CC5)cc4OC)nc32)C1 [Compound 46]
(B) C=CC(=O)Nc1cccc(-n2c(=O)c(C(C)C)nc3cnc(Nc4ccc(N5CCN(C)CC5)c(OC)c4)nc32)c1 [Compound 32]
-- ask Between A and B , which one has the lower reported IC50 value? Respond with the label that goes with your answer.
-- reply B
(B: 0.033 µM, A: 2.16 µM)
